# TARGET OR TEST SYSTEM: T1, LILRA6
# T1 construct: also called LILRA6 reporter cells
# T1 sequence (chain, as listed by the source limits assumed): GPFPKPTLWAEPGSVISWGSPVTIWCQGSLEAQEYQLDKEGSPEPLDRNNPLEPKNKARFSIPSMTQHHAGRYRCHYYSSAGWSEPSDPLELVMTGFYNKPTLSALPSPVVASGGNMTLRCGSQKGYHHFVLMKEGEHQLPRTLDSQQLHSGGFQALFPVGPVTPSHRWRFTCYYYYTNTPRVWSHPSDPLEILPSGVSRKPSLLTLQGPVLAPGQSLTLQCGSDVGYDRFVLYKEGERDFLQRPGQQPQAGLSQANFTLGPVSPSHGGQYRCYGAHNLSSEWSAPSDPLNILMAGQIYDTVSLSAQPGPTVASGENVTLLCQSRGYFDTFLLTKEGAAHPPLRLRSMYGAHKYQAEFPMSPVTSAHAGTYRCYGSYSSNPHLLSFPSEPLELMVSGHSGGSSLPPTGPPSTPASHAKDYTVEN
# TEST: flow cytometry, reporter cells
METRIC NAME: MFI
Hey, just send me the number, nothing else.

Use these answered entries as a reference point.
>>> observed_result("B2-7 (antibody, V domains shown, also called B2-7_HC; B2-7_LC) VH: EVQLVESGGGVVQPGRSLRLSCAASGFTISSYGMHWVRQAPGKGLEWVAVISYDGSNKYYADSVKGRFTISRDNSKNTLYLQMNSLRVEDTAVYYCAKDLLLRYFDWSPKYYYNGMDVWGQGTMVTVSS VL: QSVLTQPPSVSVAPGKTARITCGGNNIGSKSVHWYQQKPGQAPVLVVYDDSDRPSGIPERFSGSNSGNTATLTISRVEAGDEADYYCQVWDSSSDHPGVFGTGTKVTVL")
11
>>> observed_result("B2-17 (antibody, V domains shown, also called B2-17_HC; B2-17_LC) VH: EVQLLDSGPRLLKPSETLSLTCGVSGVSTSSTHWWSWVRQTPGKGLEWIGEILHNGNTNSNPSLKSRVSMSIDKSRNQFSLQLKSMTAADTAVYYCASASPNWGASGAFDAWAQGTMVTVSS VL: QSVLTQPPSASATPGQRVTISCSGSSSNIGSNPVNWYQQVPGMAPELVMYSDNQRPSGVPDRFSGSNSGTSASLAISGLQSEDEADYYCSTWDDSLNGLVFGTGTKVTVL")
11
>>> observed_result("B2-16 (antibody, V domains shown, also called B2-16_HC; B2-16_LC) VH: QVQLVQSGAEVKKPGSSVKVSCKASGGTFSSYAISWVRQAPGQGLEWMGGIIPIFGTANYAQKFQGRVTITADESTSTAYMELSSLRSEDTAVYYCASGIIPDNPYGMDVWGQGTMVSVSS VL: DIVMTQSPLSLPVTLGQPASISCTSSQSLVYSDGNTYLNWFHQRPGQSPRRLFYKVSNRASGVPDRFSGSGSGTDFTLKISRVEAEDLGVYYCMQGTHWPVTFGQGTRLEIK")
12

Switching to the query record.
Q: Requested read-out: MFI. Entry: B2-15 (antibody, V domains shown, also called B-15; B2-15_HC) VH: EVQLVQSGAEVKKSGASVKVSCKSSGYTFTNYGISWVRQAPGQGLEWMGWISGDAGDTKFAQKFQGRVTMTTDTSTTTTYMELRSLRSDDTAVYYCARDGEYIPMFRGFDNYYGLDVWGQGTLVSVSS VL: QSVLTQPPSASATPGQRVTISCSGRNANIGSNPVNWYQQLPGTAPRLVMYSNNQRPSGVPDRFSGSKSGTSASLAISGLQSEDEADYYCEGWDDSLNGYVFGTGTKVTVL
Ans: 10

Numbers sourced from patent US20230068663A1.
